Where do the numbers come from? From PubChem BioAssay (NCI).

I'd appreciate it if you could supply TGI values for the items below.
- System: HOP-62 NSCLC
- Assay Remarks: NCI tumour cell line growth inhibition, 48 h

Which TGI value belongs to `Cc1cc2n[n+]3[n-]cc(-c4ccccc4)n3c2cc1[N+](=O)[O-]` ?
> 100 µM

Quick one: TGI of COC(=O)C(CC(=O)Nc1ccc(Cl)c(Cl)c1)C(=O)C(=O)Nc1ccc(Cl)c(Cl)c1 (stereo not given) ?
> 100 µM

What value of TGI has been reported for the following compound? O=C(OC1CN2CCC1CC2)N(c1ccccc1)c1ccccc1 (stereo not given)
> 100 µM

Which value of TGI has been reported for C/C=C(\C)C(=O)O[C@@H]1CC(C)(C)CC2C3=CCC4[C@]56CC[C@](O)(OC5)C(C)(C)C6CC[C@@]4(C)C3(C)CC[C@]21C(=O)O (stereo not given in full) in the records?
> 100 µM

Give its TGI value. Item: `COC(=O)c1c2c(c(C)[n+]([O-])c1C)C(=O)C=C(NCc1cccc(Cl)c1)C2=O`
2.8 µM

###

- Tested on: SK-MEL-2 melanoma
- Assay Remarks: NCI tumour cell line growth inhibition, 48 h; in the data active means GI50 below about 0.43 µM; inactive means the rest
Output constraint: value belongs to active, inactive

Outcome? `Cn1c(-c2ccccc2)c(/C=C/C2=[N+](C)c3ccccc3C2(C)C)c2ccccc21`
inactive

Hello, I am checking results. What call was entered for `O=C(/C=C1\C(=O)N(Cc2ccccc2)c2ccccc21)c1ccc(OCCN2CCCCC2)cc1` ?
inactive

So what was the verdict on `CCCCCCCCCCCCCCCCOP(=O)([O-])OCC[N+](C)(C)C` in this test?
inactive

Please state the recorded outcome for this compound: `COC1=CC(c2ccc[nH]2)=N/C1=C\c1[nH]c(C)c(CC(=O)OCc2ccccc2)c1C`
active

Could you kindly confirm the outcome this assay logged for `O=C1C=Cc2c1ccc1ccccc21` ?
inactive

Hello, I am checking results. What call was entered for `C=C1C(=O)O[C@H]2[C@H]1CC/C(Cn1cc(-c3ccc(F)cc3)nn1)=C\CC[C@@]1(C)O[C@@H]21` ?
inactive

Test call, this compound: `COC(=O)c1c2c(c(C)[n+]([O-])c1C)C(=O)C=C(NCc1cccc(Cl)c1)C2=O`
inactive

Dear all, I need the recorded test outcome for `CC(C)c1cccc(O)c(=O)c1` , thank you.
inactive

What did the test return for `COc1ccc(/C(C#N)=C/c2cc(OC)c(OC)c(OC)c2)cc1` ?
inactive

Lab log entry: `Nc1nc2cc(CC[C@H]3C[C@@H](n4ccc5c(N)ncnc54)[C@H](O)[C@@H]3O)ccc2cc1Br` — outcome as called in the assay?
inactive

###

- Tested on: SW-620 colon
- Assay Remarks: NCI tumour cell line growth inhibition, 48 h
*1 amine or outer side, *2 acyl side, *3 side chain or, on linkers, in order; H or OH if unused. Where a SMILES comes first, the peptide text is derived from it. Bridges are numbered along the chain shown (N, C = ends). Roman numbers before positions name the chains, in order. [ ]: non-standard residue; d: D form. Actinocin(9to1) = Cc1c2oc3c(C)ccc(C(=O)[*:1])c3nc-2c(C(=O)[*:2])c(N)c1=O; Hyp = O=C(O)[CH]1C[CH](O)CN1; NMeV = CN[CH](C(=O)O)C(C)C; Sar = CNCC(=O)O
For each entry below, report its TGI value.

What measured TGI goes with `O=C(c1ccco1)c1c(C(F)(F)F)n([O-])c2cc(C(F)(F)F)ccc2[n+]1=O` ?
1.1 µM

Find the recorded TGI belonging to `CCCCc1c2cnccc2c(CCCC)c2c1[nH]c1ccccc12` and report it.
> 100 µM

Request the reported TGI associated with `Cc1cc(C)c(C(=O)O)c(SSc2cc(C)cc(C)c2C(=O)O)c1`
> 100 µM

So what does the record say about TGI for CC1(C)C2CCC1C(=O)[C@@]1(C=CC(=O)CC1)C2 (stereo partly specified) ?
> 100 µM

For the compound `O=C(CI)Nc1ccc(O)c2ccccc12` , what TGI is on record?
0.886 µM

Find the recorded TGI belonging to COC(=O)[C@@H](C)[C@H]1CC[C@@](C)(CCC2=C(C)CC3C=C(C)CCC3C2(C)C)OO1 (stereo partly specified) and report it.
1.01 µM

Tell me the measured TGI of `C=C(C)[C@H]1C2=CC(C)=C(O2)[C@@H](O)[C@H](C(=C)C)CCC2=C[C@H]1OC2=O` , please.
> 100 µM

# input compound: `Cn1c(-c2ccccc2)c(/C=C/C2=[N+](C)c3ccccc3C2(C)C)c2ccccc21` ; wanted: its TGI
12.5 µM

For Cc1c2oc3c(C)ccc(C(=O)NC4C(=O)NC(C(C)C)C(=O)N5CC(O)CC5C(=O)N(C)CC(=O)N(C)C(C(C)C)C(=O)OC4C)c3nc-2c(C(=O)NC2C(=O)NC(C(C)C)C(=O)N3CC(O)CC3C(=O)N(C)CC(=O)N(C)C(C(C)C)C(=O)OC2C)c(N)c1=O (stereo unspecified) (I: TV[Hyp][Sar][NMeV] / II: TV[Hyp][Sar][NMeV]; ester I:1-I:C, II:1-II:C; linker I:N-II:N via Actinocin(9to1); configuration not given here) , what is its reported TGI?
> 1 µM

Find the recorded TGI belonging to CCOC(=O)[C@@]1(C)CC(O)C(=O)N1C (stereo partly specified) and report it.
> 100 µM

Would you mind telling me what TGI value was observed for O=C1CC(=O)NC(=NN2C(=O)CSC2C(=O)c2ccco2)N1 (stereo unspecified) ?
> 100 µM

###

- Test system: TK-10 renal
- Assay Remarks: NCI tumour cell line growth inhibition, 48 h
Provide the recorded TGI for the entries that follow.

What value of TGI has been recorded for this entry: `C=C1C(=O)O[C@H]2[C@H]1CC/C(COC(=O)OC/C1=C/CC[C@@]3(C)O[C@H]3[C@H]3OC(=O)[C@@H](CN(C)C)[C@@H]3CC1)=C\CC[C@@]1(C)O[C@@H]21`
2.57 µM

// TGI lookup, key: `Cn1c2ccccc2c2cc(N3CCCC3)c3c(c21)C(=O)N(c1ccccc1)C3=O`
> 100 µM

Any idea what its TGI is? The compound is `Nc1nc(SCc2ccccc2Cl)cc(C(=O)O)n1`
> 100 µM

Recorded TGI of CCn1c2c(c3ccccc31)[C@@H](c1ccc(Cl)cc1)CC1C(=O)N(c3ccccc3)C(=O)C21 (stereo not given in full) , please.
> 100 µM

Any idea what TGI was measured for `Nc1nc2cc(CC[C@H]3C[C@@H](n4ccc5c(N)ncnc54)[C@H](O)[C@@H]3O)ccc2cc1Br` ?
26.3 µM

For the compound shown here, `O=C(c1ccccc1)c1c(C(F)(F)F)n([O-])c2cc(C(F)(F)F)ccc2[n+]1=O` , give the reported TGI.
3.18 µM

Please look up its TGI: `CC1(C)OC(=O)C(C#N)=C1C[n+]1ccccc1`
> 10 µM

Name the reported TGI value associated with the compound `Nc1ccc2ccc(N3CCNCC3)nc2n1`
> 100 µM

Find the recorded TGI belonging to `Cc1nc2ccccn2c1NC(=O)NNC(=S)Nc1ccc(F)cc1` and report it.
> 100 µM

Query: TGI; subject: `N#CC(C#N)=Cc1ccc(CP(=O)(O)O)cc1`
> 100 µM

###

- Tested on: SK-MEL-2 melanoma
API: response.call in active, inactive

Per the records of this test, what outcome belongs to `Cn1nc(C(F)(F)F)c(-c2cc(C(F)(F)F)cc(C(F)(F)F)c2)c1-c1ccc(OCc2ccc(Cl)cc2)cc1O` ?
inactive

Could you kindly confirm the outcome this assay logged for `CC(=O)O[C@H]1C(=O)[C@@]2(C)[C@H]([C@H](OC(=O)c3ccccc3)[C@]3(O)C[C@H](OC(=O)[C@H](OC(=O)OC[C@H]4COC(C)(C)O4)[C@@H](NC(=O)c4ccccc4)c4ccccc4)C(C)=C1C3(C)C)[C@]1(OC(C)=O)CO[C@@H]1C[C@@H]2O` ?
active

Returns: the outcome recorded for CN(C)CCCC1(c2ccc(F)cc2)OCc2cc(-c3cc4ccccc4s3)ccc21 (centres undefined) in this assay.
inactive

Any idea what this test logged for `C[n+]1c2ccccc2nc2ccccc21` ?
inactive

###

- System: MALME-3M melanoma
- Assay Remarks: NCI tumour cell line growth inhibition, 48 h
Parameter: TGI

GET /values?readout=TGI&item= `CC(=O)O[C@H]1C(=O)[C@@]2(C)[C@H]([C@H](OC(=O)c3ccccc3)[C@]3(O)C[C@H](OC(=O)[C@H](O)[C@@H](NC(=O)c4ccccc4)c4cccc(N(C)C)c4)C(C)=C1C3(C)C)[C@]1(OC(C)=O)CO[C@@H]1C[C@@H]2O`
> 67.1 µM

Field request: TGI | item: `CC1(C)OC(=O)C(C#N)=C1C[n+]1ccccc1`
> 10 µM

Fill in the blank: the reported TGI of `O=C(N/N=C\c1cccc2ccccc12)Nc1cccc2ccccc12` is ____.
> 100 µM

I am curious: what TGI value has been reported for `COc1ccc(/C=C2\SC(=Nc3ccccc3)NC2=O)cc1` ?
99.8 µM

Given the entry Cc1ccc(S(=O)(=O)OC(COC(=O)c2ccccc2)C(OS(=O)(=O)c2ccc(C)cc2)C(OS(=O)(=O)c2ccc(C)cc2)C(COC(=O)c2ccccc2)OS(=O)(=O)c2ccc(C)cc2)cc1 (stereo unspecified) , report its measured TGI.
> 100 µM

Give its TGI value. Item: `CC(=O)O[C@H]1C(=O)[C@@]2(C)[C@H]([C@H](OC(=O)c3ccccc3)[C@]3(O)C[C@H](OC(=O)[C@H](OC(=O)OC[C@H]4COC(C)(C)O4)[C@@H](NC(=O)c4ccccc4)c4ccccc4)C(C)=C1C3(C)C)[C@]1(OC(C)=O)CO[C@@H]1C[C@@H]2O`
> 33.3 µM
